- Measurement notes: Antiproliferative activity against human HCT116 cells after 96 hrs by SRB assay
- Type: functional, cell-based
- Condition info: HCT-116, 96 h
pIC50: −log10 of the molar value.
The entries below come with measured pIC50 values attached.
Quantity kind: pIC50

Compound | Observed value
COc1cc2c(cc1C(=O)Nc1ccc(N(C)C)cc1)CC[C@H]1C(C)(C)[C@@H](O)CC[C@]21C | 6.24
COc1ccc(NC(=O)c2cc3c(cc2OC)[C@@]2(C)CC[C@H](O)C(C)(C)[C@@H]2CC3)cc1 | 6.29
COc1cc2c(cc1C(=O)Nc1ccccc1)CC[C@H]1C(C)(C)[C@@H](O)CC[C@]21C | 5.81
COc1cc2c(cc1C(=O)Nc1ccc(C)cc1)CC[C@H]1C(C)(C)[C@@H](O)CC[C@]21C | 6.03
COc1cc([C@@H]2c3cc4c(cc3[C@H](O)[C@H]3COC(=O)[C@H]23)OCO4)cc(OC)c1OC | 7.70

* * *

- Measurement notes: Antiproliferative activity against human DU145 cells after 96 hrs by SRB assay
- Assay type: functional, cell-based
- Condition info: DU-145, 96 h
pIC50: −log10 of the molar value.
Quantity kind: pIC50

Compound | Observed value
COc1cc2c(cc1C(=O)Nc1ccc(C)cc1)CC[C@H]1C(C)(C)[C@@H](O)CC[C@]21C | 5.68
COc1cc([C@@H]2c3cc4c(cc3[C@H](O)[C@H]3COC(=O)[C@H]23)OCO4)cc(OC)c1OC | 8.00
COc1ccc(NC(=O)c2cc3c(cc2OC)[C@@]2(C)CC[C@H](O)C(C)(C)[C@@H]2CC3)cc1 | 6.27
COc1cc2c(cc1C(=O)Nc1ccccc1)CC[C@H]1C(C)(C)[C@@H](O)CC[C@]21C | 4.97
COc1cc2c(cc1C(=O)Nc1ccc(N(C)C)cc1)CC[C@H]1C(C)(C)[C@@H](O)CC[C@]21C | 6.55
